These entries and their values trace back to patent US20060135494A1.

test: Bile acid analysis of serum and brain; type: in vivo, rat; conditions: female, Sprague-Dawley, rat, serum, other: injected directly into the internal carotid artery; single 100 mg/kg bw arterial dose; 3 hours following injection (from 0.3)
READOUT_LABEL: concentration at 3 h (µM)
The reply should be a number in µM, with the unit left off.

Query string: Endpoint output: concentration at 3 h of C[C@H](CCC(=O)NCCS(=O)(=O)O)[C@H]1CC[C@H]2[C@@H]3[C@@H](O)C[C@@H]4C[C@H](O)CC[C@]4(C)[C@H]3CC[C@]12C [TUDCA, tauroursodeoxycholic acid] . Value?
Result string: 10.6
